testSystem: Human TASK-1 channels (Homo sapiens (Human), UniProt O14649)
Sequence (O14649 whole entry): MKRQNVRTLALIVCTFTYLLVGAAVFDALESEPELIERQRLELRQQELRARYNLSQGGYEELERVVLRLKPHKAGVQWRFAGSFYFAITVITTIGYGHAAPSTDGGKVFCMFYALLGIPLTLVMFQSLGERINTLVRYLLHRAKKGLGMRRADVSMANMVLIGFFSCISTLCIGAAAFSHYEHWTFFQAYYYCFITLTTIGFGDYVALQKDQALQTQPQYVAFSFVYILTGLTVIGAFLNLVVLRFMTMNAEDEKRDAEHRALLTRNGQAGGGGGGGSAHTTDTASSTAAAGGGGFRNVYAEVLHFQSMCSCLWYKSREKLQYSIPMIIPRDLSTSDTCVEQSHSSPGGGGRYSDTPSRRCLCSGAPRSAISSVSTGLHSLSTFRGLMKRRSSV
experimentNotes: Activity on the TASK-1 channel in Xenopus oocytes (two-microelectrode voltage clamp)
statedConditions: human TASK-1 expressed in Xenopus oocytes, currents during pulses to 40 mV, room temperature
pIC50: −log10 of the molar value.
measuredQuantity: pIC50

N#Cc1cccc(-c2nn(Cc3ccc(F)cc3F)c3c2CN(C(=O)C2CCOCC2)CC3)c1 ... 6.23

1: O=C(c1ccccc1)N1CCc2c(c(-c3ccc(F)cc3)nn2Cc2ccccc2)C1
2: CC(=O)N1CCc2c(c(-c3cccc(C(F)(F)F)c3)nn2Cc2ncccc2C)C1
Which entry has a larger number for pIC50, 1 or 2 ? Please reply using the label of the selected record.
2
